Taken from ChEMBL document CHEMBL1681737.

Target protein (sequence): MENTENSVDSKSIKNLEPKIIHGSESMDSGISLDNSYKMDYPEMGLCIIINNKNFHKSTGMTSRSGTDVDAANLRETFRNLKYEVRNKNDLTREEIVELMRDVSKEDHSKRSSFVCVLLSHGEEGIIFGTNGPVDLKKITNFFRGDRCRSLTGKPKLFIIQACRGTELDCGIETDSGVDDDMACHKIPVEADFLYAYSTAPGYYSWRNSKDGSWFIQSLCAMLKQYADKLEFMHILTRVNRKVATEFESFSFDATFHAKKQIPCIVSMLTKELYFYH
Metric: pIC50
One number for each entry, as −log10 of the molar value.

Input: Using the record for `O=C1C(=O)N(Cc2cn(CCF)nn2)c2ccc(S(=O)(=O)N3CCC[C@H]3COc3ccc(F)cc3F)cc21` , report its pIC50.
Output: 9.30
